Hello, the source for this data is patent US6906205B2, in case you need it.

tested on: ANKA strain of P. berghei; assay: single dose STI in vivo screen in infected mice; set-up: species or system Plasmodium berghei; conditions: single 10 mg/kg sc in 3% ethanol and 7% Tween 80; untreated control 5.6 ± 0.3
VALUE KIND: Survival (days) sc

> print(dat)
                                   compound          value.kind  reported.measurement
1  O=S(=O)(Cc1ccccc1)N1CCC2(CC1)OOC1(O2)C2CC3CC(C2)CC1C3 (centres unmarked)  Survival (days) sc                   8.0
2  O=C(Nc1ccc(Cl)cc1)N1CCC2(CC1)OOC1(O2)C2CC3CC(C2)CC1C3 (centres unmarked)  Survival (days) sc                  13.7
3  c1ccc(C2(c3ccccc3)OOC3(O2)C2CC4CC(C2)CC3C4)cc1 (centres unmarked)  Survival (days) sc                   7.0
4  CCS(=O)(=O)CCN1CCC2(CC1)OOC1(O2)C2CC3CC(C2)CC1C3 (centres unmarked)  Survival (days) sc                   8.0
5  O=C(N1CCOCC1)N1CCC2(CC1)OOC1(O2)C2CC3CC(C2)CC1C3 (centres unmarked)  Survival (days) sc                   9.0
